# literature pull: Prothrombin (Homo sapiens, UniProt P00734) Ki

{"molecule": "C[C@@H](C(=O)N1CCOCC1)N1CC[C@H](NS(=O)(=O)/C=C(\\F)c2ccc(Cl)cc2)C1=O", "Ki": "< 25 nM"}
{"molecule": "N=C(N)c1ccc(/C=C2/CCCCCCC/C(=C\\c3ccc(C(=N)N)cc3)C2=O)cc1", "Ki": "146 nM"}
{"molecule": "Cn1cnc(C[C@@H](C(=O)N2CCOCC2)N2CC[C@H](NS(=O)(=O)CCc3ccc(Cl)s3)C2=O)n1", "Ki": "< 50 nM"}
{"molecule": "CC1(C)C2CC3OB(C(Cc4cccc(C#N)c4)NC(=O)[C@@H]4CCCN4C(=O)[C@@H](Cc4ccccn4)NS(C)(=O)=O)OC3(C)C1C2 (stereo partly drawn)", "Ki": "< 500 nM"}
{"molecule": "CNC(=O)CN([C@H]1CCN([C@@H](COC)C(=O)N2CCOCC2)C1=O)S(=O)(=O)CCc1ccc(Cl)s1", "Ki": "< 10 nM"}

Ki for Prothrombin (Homo sapiens, UniProt P00734) with input O=C([C@H](Cc1ccncc1)N1CC[C@H](NS(=O)(=O)CCc2ccc(Cl)s2)C1=O)N1CCOCC1 equals < 50 nM

Observed Ki, Prothrombin (Homo sapiens, UniProt P00734), CC(=O)NC(Cc1ccccc1)C(=O)N1CCCC1C(=O)NC(Cc1cccc(C(=N)N)c1)B1OC2CC3CC(C3(C)C)C2(C)O1.O=S(=O)(O)c1ccccc1 (stereo not drawn) : < 500 nM

###

Collected from the literature: Ki of various compounds toward Prothrombin (Homo sapiens).

{"compound": "N#CC[C@@H](C(=O)N1CCOCC1)N1CC[C@H](NS(=O)(=O)CCc2ccc(Cl)s2)C1=O", "Ki": "< 100 nM"}
{"compound": "CC1(C)C2CC3OB([C@H](CCCCN)NC(=O)Cn4nc(COCc5ccccc5)nc4CCc4ccccc4)OC3(C)C1C2 (single isomer, unassigned)", "Ki": "< 50000 nM"}

For the compound CC[C@H](C)[C@@H](C(=O)N1CCOCC1)N1CC[C@H](NS(=O)(=O)CCc2ccc(Br)cc2)C1=O , the measured Ki on Prothrombin (Homo sapiens) was < 25 nM

// returns Ki for COc1ccc(-n2nc(C(F)(F)F)c3c2C(=O)N(C2CCN(N4CCCC4=O)CC2)CC3)cc1 with Prothrombin (Homo sapiens); value = ≥ 1000 nM

// compound CN(Cc1ccccc1)C(=O)C[C@@H](C(=O)N1CCOCC1)N1CC[C@H](NS(=O)(=O)CCc2ccc(Cl)s2)C1=O , assay Prothrombin (Homo sapiens), Ki value: < 50 nM

The compound CCN(CC)S(=O)(=O)c1ccccc1-c1ccc(C(=O)N[C@@H](CCCNC(=N)N)B2O[C@@H]3C[C@@H]4C[C@@H](C4(C)C)[C@]3(C)O2)c(C)c1 , tested on Prothrombin (Homo sapiens), showed Ki of < 500 nM

Known value: Prothrombin (Homo sapiens) Ki of the compound CC[C@H](C)[C@@H](C(=O)N1CCOCC1)N1CC[C@H](NS(=O)(=O)CC(C)c2ccc(Cl)s2)C1=O (some centres unmarked) equals < 25 nM

Case CC1(C)C2CC3OB(C(Cc4cccc(C#N)c4)NC(=O)[C@@H]4CCCN4C(=O)[C@H](N)Cc4cccs4)OC3(C)C1C2 (some centres unmarked) , Prothrombin (Homo sapiens), Ki recorded as < 500 nM

###

The compounds below each have a reported Ki tested on UniProt:P00734; the values come from various publications.

Example entries begin here.
{"compound": "Cc1ccc(NS(=O)(=O)Cc2ccccc2)c(=O)n1CCCNc1cccc2ncccc12", "Ki": "100 to 300 nM"}
{"compound": "Cc1ccc(NS(=O)(=O)Cc2ccccc2)c(=O)n1CCCNc1ccc2ncccc2c1", "Ki": "≤ 100 nM"}

Ki value, target or system UniProt:P00734, for Cc1ccc(NS(=O)(=O)Cc2ccc(Cl)cc2)c(=O)n1CCCNc1ccncc1 : ≤ 100 nM

Given the compound O=C(NC[C@@H]1OC(=O)N2c3ccc(N4CCCCC4=O)cc3OC[C@@H]12)c1ccc(Cl)s1 and test system UniProt:P00734, the measured Ki is > 1000 nM

Value (Ki, UniProt:P00734) for record O=C([C@H](Cc1ccc(F)cc1)N1CC[C@H](NS(=O)(=O)CCc2ccc(Cl)s2)C1=O)N1CCOCC1 = < 50 nM

The value of Ki recorded for CC1(C)[C@@H]2C[C@H]3OB([C@H](CCCNC(=N)N)NC(=O)c4ccc(-c5ccccc5)cc4)O[C@@]3(C)[C@H]1C2 when tested on UniProt:P00734 reads < 500 nM

Record for CC(C)(C)OC(=O)N[C@H](Cc1cccnc1)C(=O)N1CCCC1C(=O)NC(Cc1cccc(C#N)c1)B1OC2CC3CC(C3(C)C)C2(C)O1 (some centres unmarked) under target or system UniProt:P00734: Ki reported as < 500 nM

Log: UniProt:P00734, compound CC[C@@H](C(=O)N1CCOCC1)N1CC[C@H](NS(=O)(=O)/C=C(\C)c2ccc(Cl)s2)C1=O , Ki = < 10 nM

###

Literature compilation of Ki measurements on Prothrombin (Homo sapiens).

# count of solved cases: 5
{"compound": "Cc1cnc(NCCCc2ccccc2)c(=O)n1CCCNc1ccncc1", "recorded.value": "100 to 300 nM"}
{"compound": "CC1(C)C2CC3OB([C@H](CCCCN)NC(=O)Cn4nc(CCc5ccccc5)nc4CCc4ccccc4)OC3(C)C1C2 (single isomer, unassigned)", "recorded.value": "< 500 nM"}
{"compound": "CC(=O)N[C@H](Cc1ccccc1)C(=O)N1CCCC1C(=O)NC(CC1CCC(N)CC1)B1OC2CC3CC(C3(C)C)C2(C)O1 (some centres unmarked)", "recorded.value": "< 500 nM"}
{"compound": "CCCS(=O)(=O)NC(Cc1ccccc1)C(=O)N1CCCC1C(=O)NC(CCCNC(=N)NC)B(O)O (centres unmarked)", "recorded.value": "< 500 nM"}
{"compound": "CC[C@H](C)[C@@H](C(=O)N1CCOCC1)N1CC[C@H](N(C)S(=O)(=O)CCc2ccc(Cl)s2)C1=O", "recorded.value": "< 10 nM"}

Measured Ki, CC(=O)NC(Cc1ccccc1)C(=O)N1CCCC1C(=O)NC(Cc1ccc(C(=N)N)cc1)B1OC2CC3CC(C3(C)C)C2(C)O1 (centres unmarked) : < 500 nM

Value of Ki reported for the compound N=C(N)c1ccc(CNC(=O)[C@H](CO)NC(=O)[C@@H](CO)NS(=O)(=O)Cc2cccc(C(=O)O)c2)cc1 is 200000 nM

Consider CC1(C)[C@@H]2C[C@H]3OB([C@H](CCCSC(=N)N)NC(=O)c4cccc(-c5ccccc5)c4)O[C@@]3(C)[C@H]1C2 . Its measured Ki is < 500 nM

Entry N=C(N)c1ccc(/C=C2\CCC/C(=C\c3ccc(C(=N)N)cc3)C2=O)cc1 ; Ki = 2970 nM

Measured Ki of N=CNCCCC(NC(=O)C1CCCN1C(=O)CCc1ccccc1)B(O)O (centres unmarked) : < 500 nM

###

Let's look at some Ki data for UniProtKB P00734 that I collected from the literature.

{"structure.as.smiles": "O=C(NC[C@@H]1OC(=O)N2c3ccc(N4CCCNC4=O)cc3OC[C@@H]12)c1ccc(Cl)s1", "measurement.label": "Ki", "recorded.value": "> 1000 nM"}
{"structure.as.smiles": "CC(C)C[C@@H](C(=O)N1CCOCC1)N1CC[C@H](NS(=O)(=O)CCc2ccc(Cl)s2)C1=O", "measurement.label": "Ki", "recorded.value": "< 100 nM"}
{"structure.as.smiles": "COC[C@@H](C(=O)N1CCOCC1)N1CC[C@H](NS(=O)(=O)CC(=O)c2ccc(Cl)cc2)C1=O", "measurement.label": "Ki", "recorded.value": "< 50 nM"}
{"structure.as.smiles": "C/C(=C\\S(=O)(=O)N[C@H]1CCN([C@H](C(=O)N2CCOCC2)C(C)C)C1=O)c1ccc(Cl)s1", "measurement.label": "Ki", "recorded.value": "< 10 nM"}
{"structure.as.smiles": "Cc1ccc(NS(=O)(=O)Cc2ccccc2)c(=O)n1CCCNc1cccc(N)n1", "measurement.label": "Ki", "recorded.value": "300 to 2500 nM"}

Now consider a different molecule.
Measured Ki (UniProtKB P00734), entry COC[C@@H](C(=O)N1CCOCC1)N1CC[C@H](NS(=O)(=O)CCc2ccc(Cl)cn2)C1=O : < 200 nM

###

Across several studies, molecules have been characterized by their Ki on Prothrombin (Homo sapiens); a selection follows.

{"molecule": "COCCCC(NC(=O)[C@@H]1CCCN1C(=O)[C@@H](Cc1ccccc1)N(C)C)B1OC2CC3CC(C3(C)C)C2(C)O1 (stereo partly shown)", "target.or.test.system": "Prothrombin (Homo sapiens)", "measurement.label": "Ki", "recorded.value": "< 500 nM"}
{"molecule": "CCSC[C@@H](C(=O)N1CCOCC1)N1CC[C@H](NS(=O)(=O)CCc2ccc(Cl)s2)C1=O", "target.or.test.system": "Prothrombin (Homo sapiens)", "measurement.label": "Ki", "recorded.value": "< 50 nM"}
{"molecule": "CC1(C)C2CC3OB([C@H](CCCCN)NC(=O)Cc4nc(Cc5ccccc5)n(Cc5ccccc5)n4)OC3(C)C1C2 (single isomer, unassigned)", "target.or.test.system": "Prothrombin (Homo sapiens)", "measurement.label": "Ki", "recorded.value": "< 500 nM"}

Would you kindly look at the next entry?
For reference, reported Ki for CC1(C)C2CC3OB([C@H](CCCCN)NC(=O)Cn4nc(Cc5ccccc5)nc4COCc4ccccc4)OC3(C)C1C2 (single isomer, unassigned) stands at < 500 nM
